system: platelet aggregation induced by collagen; assay: Effect on platelet aggregation induced by collagen (antithrombotic activity); type: cell-based; conditions: human platelet rich plasma, collagen 0.5 μg/ml, 37° C
quantityMeasured: pIC50
Scale note: pIC50 = -log10(concentration in M).

If you can, please state the reported pIC50 value of CS(=O)(=O)c1ccc(-c2cc(C#N)nn2-c2ccc(F)cc2)cc1 [Example 6] .
5.28
